System: UniProt:Q9H2K8
Sequence (Q9H2K8 whole entry, looked up): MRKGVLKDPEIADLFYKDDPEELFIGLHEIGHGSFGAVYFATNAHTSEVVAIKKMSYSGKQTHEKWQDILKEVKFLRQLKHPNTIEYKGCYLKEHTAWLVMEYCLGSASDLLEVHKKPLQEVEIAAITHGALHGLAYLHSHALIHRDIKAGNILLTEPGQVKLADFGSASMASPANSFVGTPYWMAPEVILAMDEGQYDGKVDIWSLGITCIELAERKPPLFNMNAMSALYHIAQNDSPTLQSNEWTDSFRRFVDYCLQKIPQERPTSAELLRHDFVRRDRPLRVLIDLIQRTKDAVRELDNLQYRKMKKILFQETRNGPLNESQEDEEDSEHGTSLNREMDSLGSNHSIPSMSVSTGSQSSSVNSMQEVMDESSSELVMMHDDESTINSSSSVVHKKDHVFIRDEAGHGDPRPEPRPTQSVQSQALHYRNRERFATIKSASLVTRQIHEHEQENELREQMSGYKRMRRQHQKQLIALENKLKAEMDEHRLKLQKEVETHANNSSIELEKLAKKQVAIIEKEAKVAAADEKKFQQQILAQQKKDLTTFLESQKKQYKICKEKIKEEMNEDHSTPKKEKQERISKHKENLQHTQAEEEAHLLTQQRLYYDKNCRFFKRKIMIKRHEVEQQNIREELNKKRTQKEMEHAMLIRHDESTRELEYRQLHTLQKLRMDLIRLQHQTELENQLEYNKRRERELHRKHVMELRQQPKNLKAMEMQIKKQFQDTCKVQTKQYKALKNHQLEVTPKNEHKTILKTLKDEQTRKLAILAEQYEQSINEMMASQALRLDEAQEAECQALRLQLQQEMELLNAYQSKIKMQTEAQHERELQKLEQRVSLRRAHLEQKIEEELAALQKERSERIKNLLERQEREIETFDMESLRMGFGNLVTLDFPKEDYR
Experiment: KINOMEscan competition binding
Measurement Parameters: compound 10.0 µM
Provide the recorded kinase still bound, per cent of control for the entries that follow.

Entry "COc1ccc(-c2ccc3c(N4CCOCC4)nc(N4C[C@@H](C)O[C@@H](C)C4)nc3n2)cc1CO" , system UniProt:Q9H2K8: what kinase still bound, per cent of control was measured? 90%

Missing value: kinase still bound, per cent of control, UniProt:Q9H2K8, entry "COC(=O)Nc1ccc(-c2nc(N3CCOCC3)c3cnn(C4CCN(C(=O)OC)CC4)c3n2)cc1" . Fill in? 94%

What value of kinase still bound, per cent of control on UniProt:Q9H2K8 does "CC(C)n1nc(-c2cc3cc(O)ccc3[nH]2)c2c(N)ncnc21" have? 4.7%

Any idea what kinase still bound, per cent of control came out for "CCC(=O)N1CCN(c2ccc(-n3c(=O)ccc4cnc5ccc(-c6cnc7ccccc7c6)cc5c43)cc2C(F)(F)F)CC1" on UniProt:Q9H2K8? 76%

###

System: IKBKE (human)
Measurement Parameters: compound 10.0 µM
Metric Name: per cent of control (%)
Provide the reading as a plain figure in %.

Param item = "COC(=O)Nc1ccc(-c2nc(N3CCOCC3)c3cnn(C4CCN(C(=O)OC)CC4)c3n2)cc1" ; retrieve measured per cent of control. 90

So what's the measured per cent of control for this one? "CCC(=O)N1CCN(c2ccc(-n3c(=O)ccc4cnc5ccc(-c6cnc7ccccc7c6)cc5c43)cc2C(F)(F)F)CC1" 85

Reported per cent of control for "COc1ccc(-c2ccc3c(N4CCOCC4)nc(N4C[C@@H](C)O[C@@H](C)C4)nc3n2)cc1CO" : what is it? 100

Fill in the blank: the reported per cent of control of "CC(C)n1nc(-c2cc3cc(O)ccc3[nH]2)c2c(N)ncnc21" is ____. 64

###

System: PRKCQ (human) (UniProt Q04759)
Sequence (Q04759 whole entry, looked up): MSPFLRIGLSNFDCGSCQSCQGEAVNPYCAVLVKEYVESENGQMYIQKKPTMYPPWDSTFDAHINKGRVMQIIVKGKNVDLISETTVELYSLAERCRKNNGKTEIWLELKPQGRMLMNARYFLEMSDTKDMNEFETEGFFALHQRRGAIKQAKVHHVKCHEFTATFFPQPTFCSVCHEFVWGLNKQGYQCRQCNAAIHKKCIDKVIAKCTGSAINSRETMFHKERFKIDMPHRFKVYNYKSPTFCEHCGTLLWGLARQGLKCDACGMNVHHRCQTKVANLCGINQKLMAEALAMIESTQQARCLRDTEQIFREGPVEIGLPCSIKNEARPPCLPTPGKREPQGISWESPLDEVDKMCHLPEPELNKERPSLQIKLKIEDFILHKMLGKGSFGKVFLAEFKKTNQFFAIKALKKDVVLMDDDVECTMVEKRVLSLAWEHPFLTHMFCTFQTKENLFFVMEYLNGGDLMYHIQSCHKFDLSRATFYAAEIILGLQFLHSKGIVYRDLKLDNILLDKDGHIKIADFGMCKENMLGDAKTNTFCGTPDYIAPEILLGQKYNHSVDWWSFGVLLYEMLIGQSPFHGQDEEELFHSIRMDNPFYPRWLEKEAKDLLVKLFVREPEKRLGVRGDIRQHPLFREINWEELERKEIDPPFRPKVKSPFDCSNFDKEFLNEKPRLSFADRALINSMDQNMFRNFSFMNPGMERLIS
Experiment: KINOMEscan competition binding
Measurement Parameters: compound 10.0 µM
Metric Name: kinase still bound, per cent of control (%)
Quick reminder: number only, in %, skip the unit.

Look up kinase still bound, per cent of control: "CC(C)n1nc(-c2cc3cc(O)ccc3[nH]2)c2c(N)ncnc21" 58

For the compound "COc1ccc(-c2ccc3c(N4CCOCC4)nc(N4C[C@@H](C)O[C@@H](C)C4)nc3n2)cc1CO" , what kinase still bound, per cent of control is on record? 100

Which kinase still bound, per cent of control is listed for "COC(=O)Nc1ccc(-c2nc(N3CCOCC3)c3cnn(C4CCN(C(=O)OC)CC4)c3n2)cc1" ? 99

Can you look up the measured kinase still bound, per cent of control of "CCC(=O)N1CCN(c2ccc(-n3c(=O)ccc4cnc5ccc(-c6cnc7ccccc7c6)cc5c43)cc2C(F)(F)F)CC1" for me? 91

###

Give measured per cent of control for each item. Keep answers brief.
System: CDK16 (human)
Experiment: KINOMEscan competition binding
Measurement Parameters: compound 10.0 µM
Unit % implied. Number only.

per cent of control lookup needed for "CC(C)n1nc(-c2cc3cc(O)ccc3[nH]2)c2c(N)ncnc21" , thanks. 98

Need per cent of control, item "COc1ccc(-c2ccc3c(N4CCOCC4)nc(N4C[C@@H](C)O[C@@H](C)C4)nc3n2)cc1CO" 100

Report per cent of control for "COC(=O)Nc1ccc(-c2nc(N3CCOCC3)c3cnn(C4CCN(C(=O)OC)CC4)c3n2)cc1" please. 100

Could you tell me which per cent of control is on file for "CCC(=O)N1CCN(c2ccc(-n3c(=O)ccc4cnc5ccc(-c6cnc7ccccc7c6)cc5c43)cc2C(F)(F)F)CC1" ? 91

###

System: BRAF (human) (UniProt P15056)
Sequence (P15056 whole entry, looked up): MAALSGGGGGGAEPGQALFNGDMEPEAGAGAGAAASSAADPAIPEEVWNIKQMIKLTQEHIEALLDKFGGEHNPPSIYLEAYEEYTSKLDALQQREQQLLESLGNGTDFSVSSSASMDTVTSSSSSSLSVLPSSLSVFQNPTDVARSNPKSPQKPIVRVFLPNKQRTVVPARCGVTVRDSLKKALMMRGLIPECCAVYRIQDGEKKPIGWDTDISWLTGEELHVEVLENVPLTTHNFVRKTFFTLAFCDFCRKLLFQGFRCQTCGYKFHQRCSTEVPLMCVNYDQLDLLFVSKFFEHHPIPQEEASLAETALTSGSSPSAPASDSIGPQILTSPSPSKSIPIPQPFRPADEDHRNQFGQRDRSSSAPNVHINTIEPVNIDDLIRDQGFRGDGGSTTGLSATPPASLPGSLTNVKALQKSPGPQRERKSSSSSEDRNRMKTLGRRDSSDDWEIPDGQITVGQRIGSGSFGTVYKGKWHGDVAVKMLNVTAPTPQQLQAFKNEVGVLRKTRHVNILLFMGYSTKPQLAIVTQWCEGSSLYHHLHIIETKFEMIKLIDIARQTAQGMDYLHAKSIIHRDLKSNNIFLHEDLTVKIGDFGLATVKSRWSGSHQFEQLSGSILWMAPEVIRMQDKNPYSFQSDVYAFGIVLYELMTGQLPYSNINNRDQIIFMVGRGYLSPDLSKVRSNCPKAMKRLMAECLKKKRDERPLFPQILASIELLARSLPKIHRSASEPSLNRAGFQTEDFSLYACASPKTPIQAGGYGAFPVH
Experiment: KINOMEscan competition binding
Measurement Parameters: compound 10.0 µM
Please respond with reported kinase still bound, per cent of control for every item in the list.
Hi! Could you send only the number? It should be in %, unit omitted.

# lookup: kinase still bound, per cent of control of "COc1ccc(-c2ccc3c(N4CCOCC4)nc(N4C[C@@H](C)O[C@@H](C)C4)nc3n2)cc1CO" 81

Field request: kinase still bound, per cent of control | item: "CC(C)n1nc(-c2cc3cc(O)ccc3[nH]2)c2c(N)ncnc21" 5.8

For the molecule "COC(=O)Nc1ccc(-c2nc(N3CCOCC3)c3cnn(C4CCN(C(=O)OC)CC4)c3n2)cc1" , what kinase still bound, per cent of control is on record? 74

Entry under review: "CCC(=O)N1CCN(c2ccc(-n3c(=O)ccc4cnc5ccc(-c6cnc7ccccc7c6)cc5c43)cc2C(F)(F)F)CC1" . Reported kinase still bound, per cent of control? 59

###

Please provide measured kinase still bound, per cent of control for the entries that follow.
System: CSK (human)
Experiment: KINOMEscan competition binding
Measurement Parameters: compound 10.0 µM
Numeric answer plus unit only.

What does the record list as kinase still bound, per cent of control for "COc1ccc(-c2ccc3c(N4CCOCC4)nc(N4C[C@@H](C)O[C@@H](C)C4)nc3n2)cc1CO" ? 77%

Entry "COC(=O)Nc1ccc(-c2nc(N3CCOCC3)c3cnn(C4CCN(C(=O)OC)CC4)c3n2)cc1" has what kinase still bound, per cent of control? 98%

Which kinase still bound, per cent of control is reported for this compound? "CCC(=O)N1CCN(c2ccc(-n3c(=O)ccc4cnc5ccc(-c6cnc7ccccc7c6)cc5c43)cc2C(F)(F)F)CC1" 71%

What value of kinase still bound, per cent of control has been reported for the following compound? "CC(C)n1nc(-c2cc3cc(O)ccc3[nH]2)c2c(N)ncnc21" 15%

###

Could you please report measured per cent of control for the items listed next?
System: MAPK8 (human)
Measurement Parameters: compound 1.0 µM
Kindly answer with a numeric value in %, unit omitted.

Would you mind telling me what per cent of control value was observed for "CC(C)n1nc(-c2cc3cc(O)ccc3[nH]2)c2c(N)ncnc21" ? 94

Given the compound "COC(=O)Nc1ccc(-c2nc(N3CCOCC3)c3cnn(C4CCN(C(=O)OC)CC4)c3n2)cc1" , what is its reported per cent of control? 93

For the compound "CCC(=O)N1CCN(c2ccc(-n3c(=O)ccc4cnc5ccc(-c6cnc7ccccc7c6)cc5c43)cc2C(F)(F)F)CC1" , what per cent of control is on record? 98

May I ask what per cent of control has been recorded for "COc1ccc(-c2ccc3c(N4CCOCC4)nc(N4C[C@@H](C)O[C@@H](C)C4)nc3n2)cc1CO" ? 80

###

System: UniProt:Q9H1R3
Sequence (Q9H1R3 whole entry, looked up): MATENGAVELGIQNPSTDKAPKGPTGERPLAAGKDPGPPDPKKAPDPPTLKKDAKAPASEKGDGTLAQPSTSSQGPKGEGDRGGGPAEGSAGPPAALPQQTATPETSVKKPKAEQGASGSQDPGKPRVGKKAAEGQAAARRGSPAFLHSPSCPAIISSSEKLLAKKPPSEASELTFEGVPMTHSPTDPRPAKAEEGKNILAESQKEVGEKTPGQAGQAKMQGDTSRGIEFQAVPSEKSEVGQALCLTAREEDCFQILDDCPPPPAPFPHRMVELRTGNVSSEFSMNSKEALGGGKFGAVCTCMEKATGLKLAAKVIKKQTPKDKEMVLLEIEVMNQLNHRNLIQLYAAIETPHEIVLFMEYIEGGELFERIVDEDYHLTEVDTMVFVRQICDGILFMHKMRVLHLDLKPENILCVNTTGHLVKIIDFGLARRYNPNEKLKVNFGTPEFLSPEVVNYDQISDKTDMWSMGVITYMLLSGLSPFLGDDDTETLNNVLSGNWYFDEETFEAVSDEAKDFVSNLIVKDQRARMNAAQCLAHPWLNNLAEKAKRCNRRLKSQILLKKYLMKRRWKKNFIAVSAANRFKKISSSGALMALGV
Experiment: KINOMEscan competition binding
Measurement Parameters: compound 10.0 µM
Please go through the items and note down their kinase still bound, per cent of control.
Lab note: write values as number then unit, every time.

Name the reported kinase still bound, per cent of control value associated with the molecule "COc1ccc(-c2ccc3c(N4CCOCC4)nc(N4C[C@@H](C)O[C@@H](C)C4)nc3n2)cc1CO" 78%

Which kinase still bound, per cent of control is listed for "CCC(=O)N1CCN(c2ccc(-n3c(=O)ccc4cnc5ccc(-c6cnc7ccccc7c6)cc5c43)cc2C(F)(F)F)CC1" ? 40%

Value lookup for kinase still bound, per cent of control; key = "COC(=O)Nc1ccc(-c2nc(N3CCOCC3)c3cnn(C4CCN(C(=O)OC)CC4)c3n2)cc1" 100%

Which kinase still bound, per cent of control reading was recorded for the molecule "CC(C)n1nc(-c2cc3cc(O)ccc3[nH]2)c2c(N)ncnc21" ? 43%

###

System: MAP3K12 (human)
Experiment: KINOMEscan competition binding
Measurement Parameters: compound 10.0 µM
Metric Name: per cent of control (%)
// note: answer is a bare numeric in %

Recorded per cent of control for "COC(=O)Nc1ccc(-c2nc(N3CCOCC3)c3cnn(C4CCN(C(=O)OC)CC4)c3n2)cc1" , please? 97

Look up per cent of control: "CCC(=O)N1CCN(c2ccc(-n3c(=O)ccc4cnc5ccc(-c6cnc7ccccc7c6)cc5c43)cc2C(F)(F)F)CC1" 100

Look up per cent of control: "CC(C)n1nc(-c2cc3cc(O)ccc3[nH]2)c2c(N)ncnc21" 84

Suppose we examine the compound "COc1ccc(-c2ccc3c(N4CCOCC4)nc(N4C[C@@H](C)O[C@@H](C)C4)nc3n2)cc1CO" ; what per cent of control value has been reported? 100

###

System: ACVR1 (human) (UniProt Q04771)
Sequence (Q04771 whole entry, looked up): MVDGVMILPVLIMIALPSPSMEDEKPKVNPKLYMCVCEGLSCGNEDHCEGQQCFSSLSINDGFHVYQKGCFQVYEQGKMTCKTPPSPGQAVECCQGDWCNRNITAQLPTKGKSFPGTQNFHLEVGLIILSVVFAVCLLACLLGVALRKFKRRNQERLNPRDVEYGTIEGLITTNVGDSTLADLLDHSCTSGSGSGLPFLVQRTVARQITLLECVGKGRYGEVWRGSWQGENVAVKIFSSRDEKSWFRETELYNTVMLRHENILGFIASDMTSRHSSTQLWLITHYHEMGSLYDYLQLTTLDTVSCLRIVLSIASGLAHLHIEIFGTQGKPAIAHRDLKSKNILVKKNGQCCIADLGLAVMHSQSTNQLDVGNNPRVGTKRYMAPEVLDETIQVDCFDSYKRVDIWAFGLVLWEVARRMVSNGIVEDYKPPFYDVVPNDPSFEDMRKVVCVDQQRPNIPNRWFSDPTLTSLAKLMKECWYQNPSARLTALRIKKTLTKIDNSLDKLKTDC
Experiment: KINOMEscan competition binding
Measurement Parameters: compound 10.0 µM
Field: kinase still bound, per cent of control. Provide a value for each of the compounds that follow.
Give your result in % as a bare value.

Which measured kinase still bound, per cent of control value corresponds to "CCC(=O)N1CCN(c2ccc(-n3c(=O)ccc4cnc5ccc(-c6cnc7ccccc7c6)cc5c43)cc2C(F)(F)F)CC1" ? 28

Sample "COc1ccc(-c2ccc3c(N4CCOCC4)nc(N4C[C@@H](C)O[C@@H](C)C4)nc3n2)cc1CO" — what was its kinase still bound, per cent of control? 100

What does the data say about its kinase still bound, per cent of control? Entry: "COC(=O)Nc1ccc(-c2nc(N3CCOCC3)c3cnn(C4CCN(C(=O)OC)CC4)c3n2)cc1" 100

# lookup: kinase still bound, per cent of control of "CC(C)n1nc(-c2cc3cc(O)ccc3[nH]2)c2c(N)ncnc21" 0.1
